# ASSAY SYSTEM: T1, human FOLR1 protein, His Tag (ACRO FO1-H52H1) (human, UniProt P15328 25-233)
# T1 construct: Bought protein coated on ELISA plates; not shown: His tag
# T1 sequence (P15328 25-233 limits assumed): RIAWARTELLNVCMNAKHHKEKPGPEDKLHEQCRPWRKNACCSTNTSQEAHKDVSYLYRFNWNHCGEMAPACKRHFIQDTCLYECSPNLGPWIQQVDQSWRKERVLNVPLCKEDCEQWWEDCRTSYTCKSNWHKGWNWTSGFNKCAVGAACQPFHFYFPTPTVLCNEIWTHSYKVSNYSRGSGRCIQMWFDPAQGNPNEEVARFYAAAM
# ASSAY PROCEDURE: ELISA, coated hFOLR1-His, HEK293 supernatant

BINDER	OD450
F123 (antibody, V domains shown, Tested as full-length IgG with an IgG1 Fc from HEK293, as supernatant or purified; also called clone F123; anti-FOLR1 antibody F123) VH: EVQLLESGGGVVQPERSLRLSCAASGFTFSSYGMHWVRQAPGKGLEWVAVISYDGSNKYYADSVKGRFTISRANSKNTLYLQMNSLRAEDTAVYYCARPRAYYGAYGSSFDYWGQGTQVTVSS VL: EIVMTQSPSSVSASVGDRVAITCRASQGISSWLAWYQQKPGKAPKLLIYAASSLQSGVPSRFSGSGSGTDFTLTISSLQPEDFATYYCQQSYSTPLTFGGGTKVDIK	2.32 OD450
F131 (antibody, V domains shown, also called clone F131; F131 mAb) VH: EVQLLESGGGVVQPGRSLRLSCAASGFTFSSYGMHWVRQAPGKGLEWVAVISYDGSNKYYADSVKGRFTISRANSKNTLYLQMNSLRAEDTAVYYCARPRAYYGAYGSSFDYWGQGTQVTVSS VL: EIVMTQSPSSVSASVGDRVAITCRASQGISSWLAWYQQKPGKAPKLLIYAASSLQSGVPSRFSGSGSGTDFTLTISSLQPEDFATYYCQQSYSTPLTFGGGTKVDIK	2.35 OD450
F8 (antibody, V domains shown, Tested as full-length IgG with an IgG1 Fc from HEK293, as supernatant or purified; also called clone F8; anti-FOLR1 antibody F8) VH: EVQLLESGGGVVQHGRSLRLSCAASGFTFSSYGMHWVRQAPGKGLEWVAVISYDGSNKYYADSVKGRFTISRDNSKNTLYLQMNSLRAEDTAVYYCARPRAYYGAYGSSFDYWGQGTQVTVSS VL: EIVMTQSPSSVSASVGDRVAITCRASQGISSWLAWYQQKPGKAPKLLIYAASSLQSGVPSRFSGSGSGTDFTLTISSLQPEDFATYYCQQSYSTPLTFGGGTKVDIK	2.45 OD450

# credit: patent US20240245796A1
